Kindly supply the reported TGI values for the records listed here.
System: NCI-H522 lung
Assay: NCI tumour cell line growth inhibition, 48 h

>  <compound>
CCCCCCCCCCCOc1ccc(C(=O)C(=O)c2ccc(OCCCCCCCCCCC)c(OCCCCCCCCCCC)c2)cc1OCCCCCCCCCCC

>  <tested system>
NCI-H522 lung

>  <TGI>
> 100 µM

$$$$
>  <compound>
N#CCCN(CCC#N)c1ccc(/C=C2\N=C(c3cc([N+](=O)[O-])ccc3Cl)OC2=O)cc1

>  <tested system>
NCI-H522 lung

>  <TGI>
27.6 µM

$$$$
>  <compound>
NC(Cc1c[nH]c2c(O)cccc12)C(=O)O (stereo unspecified)

>  <tested system>
NCI-H522 lung

>  <TGI>
> 100 µM

$$$$
>  <compound>
O=S1(=O)c2ccccc2NC(c2ccc3ccccc3c2)CC1c1ccccc1F (stereo unspecified)

>  <tested system>
NCI-H522 lung

>  <TGI>
> 100 µM

$$$$
>  <compound>
CN1C(=O)C(C)(C)C2(SC(C)(C)C2(C)C)N(C)C1=S (stereo unspecified)

>  <tested system>
NCI-H522 lung

>  <TGI>
> 100 µM

$$$$

Pending compound:
Provide TGI, tested on NCI-H522 lung, for CNC(=O)C(C)C1CCC2(C)C=CC(=O)C(C)=C2C1O (stereo unspecified) .
> 100 µM

====

Kindly supply the reported TGI values for the records listed here.
Test system: OVCAR-8 ovarian
Assay: NCI tumour cell line growth inhibition, 48 h

>  <molecule>
CN(C)C(=N)c1ccccc1

>  <TGI>
> 100 µM

$$$$
>  <molecule>
COc1ccc(N2C(=O)C3c4[nH]c5ccccc5c4C4CCC(C(C)(C)C)CC4C3C2=O)c(C)c1 (stereo not given)

>  <TGI>
> 100 µM

$$$$
>  <molecule>
O=C(COc1ccc(Br)cc1Br)N1N=C(c2ccc([N+](=O)[O-])o2)CC1(O)c1ccccc1 (stereo not given)

>  <TGI>
36.7 µM

$$$$
>  <molecule>
Oc1cc2c3c(c1)c1cc4c(cc1c[n+]3CC2)OCO4

>  <TGI>
14.1 µM

$$$$
>  <molecule>
O=CC[C@H]1C(=O)C[C@@H]2CCC[C@@H]21

>  <TGI>
> 100 µM

$$$$
>  <molecule>
O=C1CCC23CC(C=CC=C12)n1c(=O)n(-c2ccccc2)c(=O)n13 (stereo not given)

>  <TGI>
> 100 µM

$$$$

Report TGI for each item below.
1. FC(F)(F)c1cc(Cl)cnc1N/N=C(/c1ccccc1)c1ccccn1
2. COc1ccc(CNc2nc(NCc3ccc(OC)c(OC)c3)nc(NC3CCCCC3)n2)cc1
3. Cc1nc(C(N)=S)sc1/C(CC(=O)C(=O)Nc1cccc2ccc(O)cc12)=N\NC(=O)c1ccncc1
4. COc1cc(CNc2cnc3cc(N)cc(N)c3n2)cc(OC)c1

5.06 µM
> 100 µM
> 100 µM
57.6 µM

====

System: COLO 205 colon
Experiment: NCI tumour cell line growth inhibition, 48 h
Where a SMILES comes first, the peptide text is derived from it. [ ]: non-standard residue; d: D form. The star is where a group is joined. ξ: configuration not given here. X6 = FC(F)(F)c1cc(NC(=S)*)cc(C(F)(F)F)c1; ξF = NC(Cc1ccccc1)C(=O)O
endpoint name: TGI (µM)
Give bare numbers, in µM.

Solved cases (4 shown):
>  <compound>
Cc1cc(O)c2c(=O)c3ccccc3[nH]c2c1

>  <TGI / µM>
42

$$$$
>  <compound>
COc1ccc2c(C3=C(c4cn(C)c5ccccc45)C(=O)NC3=O)cn(C)c2c1

>  <TGI / µM>
0.323

$$$$
>  <compound>
COC(=O)[C@@H](NC(=O)CNC(=O)[C@H]1CCCN1C(=O)C(Cc1ccccc1)NC(=S)Nc1cc(C(F)(F)F)cc(C(F)(F)F)c1)C(C)C (some centres undefined) (X6-[ξF][dP]GV-OMe)

>  <TGI / µM>
3.32

$$$$
>  <compound>
CCCN=C1CCN(Cc2ccccc2)c2ccccc2N1

>  <TGI / µM>
22.9

$$$$

I would be grateful if you could provide TGI for each of the following entries.
1. NC(=O)c1sc(-n2cnc3ccccc32)cc1OCc1ccccc1Br
2. COc1cc(/C=C2\S/C(=N/Nc3nc(-c4ccc(Br)cc4)cs3)NC2=O)cc(OC)c1OC

23.2
71.3

Look up TGI for the entries below, preserving their order.
1. CC(C)/C(Cl)=N\OC(=O)Nc1ccc(S(N)(=O)=O)cc1
2. C#Cc1ccc(-n2c(/C=C/c3ccc(C(F)(F)F)cc3)nc3ncccc3c2=O)cc1
3. O=C1/C(=C/c2ccccc2)CN(C(=O)C(Cl)(Cl)Cl)C/C1=C\c1ccccc1
4. O=[N+]([O-])C(=C1NCCN1)/C(Cl)=C(\Cl)Br
5. Oc1ccc(-c2nc(-c3cccnc3)c(-c3ccc(F)cc3)[nH]2)cc1
6. O=C(COc1ccc(Br)cc1Br)N1N=C(c2ccc([N+](=O)[O-])o2)CC1(O)c1ccccc1 (centres undefined)
7. CCCCC(=O)OCC(=O)[C@]1(O)Cc2c(O)c3c(c(O)c2[C@@H](OC2CC(NC(=O)C(F)(F)F)C(O)C(C)O2)C1)C(=O)c1c(OC)cccc1C3=O (some centres undefined)

1. 3.92
2. 4.48
3. 4.69
4. 42.6
5. 36.8
6. 7.05
7. 3.69

For each of the items listed, what is its TGI?
1. O=C1CC(c2ccc3c(c2)OCO3)Nc2ccccc21 (centres undefined)
2. C=C(C1=CC(=O)C(C)(C)O1)[C@@H]1CC=C([C@@H]2CC[C@H]3[C@@]2(C)CC[C@H]2C(C)(C)C(=O)[C@H](O)C[C@]32C)[C@H](O)O1
3. Cc1cc(I)cc(CN(C)CCCCN2CCCCC2)c1O
4. CC(C)CCC[C@@H](C)[C@H]1CC[C@H]2[C@@H]3CC=C4C[C@@H](C(C(=O)O)C(=O)O)CC[C@]4(C)[C@H]3CC[C@]12C
5. O=C(CC1(O)C(=O)Nc2c(Cl)cc(Cl)cc21)c1ccc(Br)cc1Br (centres undefined)
6. NC(=O)c1cccc2cn(-c3ccc([C@@H]4CCCNC4)cc3)nc12
7. Cc1ccc2c(=O)cc(-c3ccc(F)cc3)[nH]c2n1

1. 37.2
2. 3.51
3. 24.9
4. 0.247
5. 16.9
6. 28.6
7. 47.9

====

Tested on: HS 578T breast
Assay: NCI tumour cell line growth inhibition, 48 h
endpoint name: TGI (µM)
Give bare numbers, in µM.

Before answering, review these 2 worked examples.
>  <compound structure>
CCCN=C1CCN(Cc2ccccc2)c2ccccc2N1

>  <TGI [µM]>
36.2

$$$$
>  <compound structure>
Clc1ccc(/C=C/c2nc3ccccc3s2)cc1Cl

>  <TGI [µM]>
80.8

$$$$

// below: TGI requested for another molecule
State, in one line, measured TGI of O=C1/C(=C/c2cccc([N+](=O)[O-])c2)COc2ccc(O)cc21
9.4

====

Test system: M14 melanoma
Experiment: NCI tumour cell line growth inhibition, 48 h
Give measured TGI for each item. Keep answers brief.

Previously resolved entries follow.
>  <compound>
Nc1ccccc1SC(C[N+](=O)[O-])c1ccc2c(c1)OCO2 (stereo not given)

>  <tested system>
M14 melanoma

>  <TGI>
3.15 µM

$$$$
>  <compound>
Cc1ccccc1-n1c(=O)c2ncn(CCCl)c2n(-c2ccccc2C)c1=S

>  <tested system>
M14 melanoma

>  <TGI>
> 100 µM

$$$$
>  <compound>
CC1(C)CCc2c(c3c(c4c(=O)c(O)c(-c5ccc(O)cc5)oc24)OC(C)(C)CC3)O1

>  <tested system>
M14 melanoma

>  <TGI>
> 100 µM

$$$$
>  <compound>
COc1cc(Cc2cnc(/N=C3\C(=O)N(CN4CCN(c5c(F)cc6c(=O)c(C(=O)O)cn(C7CC7)c6c5OC)CC4C)c4ccc(F)cc43)nc2N)cc(OC)c1OC (stereo not given)

>  <tested system>
M14 melanoma

>  <TGI>
22 µM

$$$$
>  <compound>
Cc1ccsc1/C=N/Nc1ncccn1

>  <tested system>
M14 melanoma

>  <TGI>
> 100 µM

$$$$
>  <compound>
C/C(CC(=O)CCC(=O)Nc1cccc(C(F)(F)F)c1)=N\NC(=O)NN

>  <tested system>
M14 melanoma

>  <TGI>
> 100 µM

$$$$

Please go through the list and note TGI for each compound.
1. O=S1(=O)NC(=NCc2c[nH]c3ccccc23)N(c2ccccc2)c2ccncc21
2. COc1cc(/C=C/C(=N\NS(=O)(=O)c2ccc(C)cc2)c2sc(NNC(C)=O)nc2C)ccc1O
3. CC1(c2ccc(F)cc2)C(C#N)C(=O)NC(=O)C1C#N (stereo not given)
4. O=C(NNC(=O)c1ccccc1SSc1ccccc1C(=O)NNC(=O)c1ccccc1S)c1ccccc1S
5. C=C(Br)C(C)(Cl)CCC(Br)C(C)(C)Cl (stereo not given)
6. Clc1ccc(/C=C/c2nc3ccccc3s2)cc1Cl
7. CC(C)C/C(CC(=O)CCC(=O)Nc1ccccc1[N+](=O)[O-])=N\NC(=O)c1cc2ccccc2cc1O

["> 100 µM", "> 100 µM", "> 100 µM", "> 100 µM", "> 100 µM", "> 100 µM", "> 100 µM"]
